Value source: patent US7879887B2

# Experimental Target: CDK3/Cyclin E complex (Homo sapiens)
# Sequence (Q00526 whole entry): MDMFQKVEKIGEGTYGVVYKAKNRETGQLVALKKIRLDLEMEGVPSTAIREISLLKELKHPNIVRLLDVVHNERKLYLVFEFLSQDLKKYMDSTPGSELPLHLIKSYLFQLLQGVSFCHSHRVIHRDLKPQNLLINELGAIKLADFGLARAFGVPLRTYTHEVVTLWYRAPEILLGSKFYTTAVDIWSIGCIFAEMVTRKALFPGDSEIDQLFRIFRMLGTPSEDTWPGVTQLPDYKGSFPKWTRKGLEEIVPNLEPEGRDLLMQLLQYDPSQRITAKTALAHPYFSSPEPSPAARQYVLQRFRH
# Sequence (P24864 whole entry partner): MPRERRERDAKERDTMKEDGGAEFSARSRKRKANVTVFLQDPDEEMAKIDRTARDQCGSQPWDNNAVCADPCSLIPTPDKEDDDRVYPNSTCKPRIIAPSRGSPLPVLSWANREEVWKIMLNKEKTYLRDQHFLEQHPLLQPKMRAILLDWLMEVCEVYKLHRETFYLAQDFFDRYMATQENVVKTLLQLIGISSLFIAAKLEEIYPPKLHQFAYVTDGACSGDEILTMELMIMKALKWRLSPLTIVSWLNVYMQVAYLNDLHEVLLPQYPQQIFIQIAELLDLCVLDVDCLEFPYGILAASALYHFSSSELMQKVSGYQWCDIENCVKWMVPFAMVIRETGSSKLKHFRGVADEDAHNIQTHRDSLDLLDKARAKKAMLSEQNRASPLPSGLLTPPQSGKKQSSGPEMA
# Assay: In vitro kinase assay, CDK3/Cyclin E complex
# Condition Info: recombinant protein (Upstate); read-out: CDK3/cyclinE IC50
# Protocol: Inhibitory activity against Aurora A, CDK1/Cyclin B complex, CDK2/Cyclin E complex and CDK3/Cyclin E complex were measured by in vitro kinase assay using recombinant proteins.
Recorded IC50 split into classes I = under 60 nM, II = from 60 nM up to 300 nM, III = 300 nM and over

Compound: CCNC(=O)c1cc(NC(C)(C)C(=O)Nc2nc3c(C(F)(F)F)cc4[nH]ncc4c3s2)ccc1F
Label: I
//
Compound: CC(C)OC(=O)c1cc(NC(C)(C)C(=O)Nc2nc3ccc4[nH]ncc4c3s2)ccc1Cl
Label: III
//
Compound: CC(C)(Nc1cccc(C(=O)NCCC(N)=O)c1)C(=O)Nc1nc2c(C(F)(F)F)cc3[nH]ncc3c2s1
Label: I
//
Compound: CC(C)(Nc1ccc(Cl)c(O)c1)C(=O)Nc1nc2c(C(F)(F)F)cc3[nH]ncc3c2s1
Label: I
//
Compound: O=C(CNc1cccc(O)c1)Nc1nc2ccc3[nH]ncc3c2s1
Label: II
//
Compound: CON(C)C(=O)c1cc(Cl)ccc1NC(C)(C)C(=O)Nc1nc2c(C(F)(F)F)cc3[nH]ncc3c2s1
Label: III
//
Compound: CCC(=O)Nc1cc(NC2(C(=O)Nc3nc4ccc5[nH]ncc5c4s3)CC2)ccc1F
Label: II
//
Compound: CC(C)(Nc1ccc(Cl)c(C(=O)NCC(=O)O)c1)C(=O)Nc1nc2c(C(F)(F)F)cc3[nH]ncc3c2s1
Label: II
//
Compound: CC(C)(Nc1ccc(Cl)c(-n2cc[nH]c2=O)c1)C(=O)Nc1nc2c(C(F)(F)F)cc3[nH]ncc3c2s1
Label: II
//
Compound: O=C(Nc1nc2ccc3[nH]ncc3c2s1)C(CO)Nc1ccc(Cl)cc1 (stereo not shown)
Label: I
//
Compound: CC(C)(Nc1cccc(S(N)(=O)=O)c1)C(=O)Nc1nc2c(C(F)(F)F)cc3[nH]ncc3c2s1
Label: I
//
Compound: CC(C)CC(Nc1cccc(O)c1)C(=O)Nc1nc2ccc3[nH]ncc3c2s1 (stereo not shown)
Label: III
//
Compound: CC(C)(Nc1ccc(Cl)cc1C(=O)NCC(N)=O)C(=O)Nc1nc2c(C(F)(F)F)cc3[nH]ncc3c2s1
Label: III
//
Compound: COc1cccc(NC(CC(N)=O)C(=O)Nc2nc3ccc4[nH]ncc4c3s2)c1 (stereo not shown)
Label: III
//
Compound: CC(=O)Nc1cc(NC(C)(C)C(=O)Nc2nc3c(C(F)(F)F)cc4[nH]ncc4c3s2)ccc1F
Label: I
//
Compound: CC(=O)Nc1cc(NC(C(=O)Nc2nc3c(C(F)(F)F)cc4[nH]ncc4c3s2)c2ccccc2)ccc1Cl (stereo not shown)
Label: II

###

# Experimental Target: Aurora A (Homo sapiens, UniProt O14965)
# Sequence (O14965 1-403): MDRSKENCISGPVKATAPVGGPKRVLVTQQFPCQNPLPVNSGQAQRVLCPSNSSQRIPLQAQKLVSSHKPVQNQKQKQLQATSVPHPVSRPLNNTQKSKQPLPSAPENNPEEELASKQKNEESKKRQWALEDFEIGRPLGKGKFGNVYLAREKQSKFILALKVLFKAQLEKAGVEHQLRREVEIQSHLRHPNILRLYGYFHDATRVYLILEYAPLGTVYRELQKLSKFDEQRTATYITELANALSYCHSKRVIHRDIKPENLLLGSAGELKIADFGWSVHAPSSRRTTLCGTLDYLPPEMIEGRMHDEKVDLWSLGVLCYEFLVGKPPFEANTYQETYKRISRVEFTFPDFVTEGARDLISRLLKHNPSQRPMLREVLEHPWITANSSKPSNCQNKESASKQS
# Assay: In vitro kinase assay, Aurora A
# Condition Info: recombinant protein (Upstate)
Measured IC50 of individual entries
Measure: IC50 (nM)

Compound: CCOC(=O)c1cc(NC2(C(=O)Nc3nc4ccc5[nH]ncc5c4s3)CC2)ccc1Cl [compound 118]
Measure: IC50
Test Result: 236

Compound: CC(C)(Nc1ccc(Cl)c(C(=O)NCCCS(N)(=O)=O)c1)C(=O)Nc1nc2c(C(F)(F)F)cc3[nH]ncc3c2s1 [compound 102]
Measure: IC50
Test Result: 39

Compound: CCOC(=O)c1cc(NC(C)(C)C(=O)Nc2nc3ccc4[nH]ncc4c3s2)ccc1F [compound 49]
Measure: IC50
Test Result: 265

Compound: O=C(Nc1nc2ccc3[nH]ncc3c2s1)C1(Nc2ccc(Cl)cc2)CC1 [compound 117]
Measure: IC50
Test Result: 317
